These measurements were taken from patent US20240150360A1.

Readings of Dmax for the listed molecules
# TESTED TARGET: CBP (Homo sapiens)
# Construct: endogenous in cells; host or cells: 22Rv1 (ATCC CRL-2505) human prostate cancer cells
# Sequence (Q92793 whole entry): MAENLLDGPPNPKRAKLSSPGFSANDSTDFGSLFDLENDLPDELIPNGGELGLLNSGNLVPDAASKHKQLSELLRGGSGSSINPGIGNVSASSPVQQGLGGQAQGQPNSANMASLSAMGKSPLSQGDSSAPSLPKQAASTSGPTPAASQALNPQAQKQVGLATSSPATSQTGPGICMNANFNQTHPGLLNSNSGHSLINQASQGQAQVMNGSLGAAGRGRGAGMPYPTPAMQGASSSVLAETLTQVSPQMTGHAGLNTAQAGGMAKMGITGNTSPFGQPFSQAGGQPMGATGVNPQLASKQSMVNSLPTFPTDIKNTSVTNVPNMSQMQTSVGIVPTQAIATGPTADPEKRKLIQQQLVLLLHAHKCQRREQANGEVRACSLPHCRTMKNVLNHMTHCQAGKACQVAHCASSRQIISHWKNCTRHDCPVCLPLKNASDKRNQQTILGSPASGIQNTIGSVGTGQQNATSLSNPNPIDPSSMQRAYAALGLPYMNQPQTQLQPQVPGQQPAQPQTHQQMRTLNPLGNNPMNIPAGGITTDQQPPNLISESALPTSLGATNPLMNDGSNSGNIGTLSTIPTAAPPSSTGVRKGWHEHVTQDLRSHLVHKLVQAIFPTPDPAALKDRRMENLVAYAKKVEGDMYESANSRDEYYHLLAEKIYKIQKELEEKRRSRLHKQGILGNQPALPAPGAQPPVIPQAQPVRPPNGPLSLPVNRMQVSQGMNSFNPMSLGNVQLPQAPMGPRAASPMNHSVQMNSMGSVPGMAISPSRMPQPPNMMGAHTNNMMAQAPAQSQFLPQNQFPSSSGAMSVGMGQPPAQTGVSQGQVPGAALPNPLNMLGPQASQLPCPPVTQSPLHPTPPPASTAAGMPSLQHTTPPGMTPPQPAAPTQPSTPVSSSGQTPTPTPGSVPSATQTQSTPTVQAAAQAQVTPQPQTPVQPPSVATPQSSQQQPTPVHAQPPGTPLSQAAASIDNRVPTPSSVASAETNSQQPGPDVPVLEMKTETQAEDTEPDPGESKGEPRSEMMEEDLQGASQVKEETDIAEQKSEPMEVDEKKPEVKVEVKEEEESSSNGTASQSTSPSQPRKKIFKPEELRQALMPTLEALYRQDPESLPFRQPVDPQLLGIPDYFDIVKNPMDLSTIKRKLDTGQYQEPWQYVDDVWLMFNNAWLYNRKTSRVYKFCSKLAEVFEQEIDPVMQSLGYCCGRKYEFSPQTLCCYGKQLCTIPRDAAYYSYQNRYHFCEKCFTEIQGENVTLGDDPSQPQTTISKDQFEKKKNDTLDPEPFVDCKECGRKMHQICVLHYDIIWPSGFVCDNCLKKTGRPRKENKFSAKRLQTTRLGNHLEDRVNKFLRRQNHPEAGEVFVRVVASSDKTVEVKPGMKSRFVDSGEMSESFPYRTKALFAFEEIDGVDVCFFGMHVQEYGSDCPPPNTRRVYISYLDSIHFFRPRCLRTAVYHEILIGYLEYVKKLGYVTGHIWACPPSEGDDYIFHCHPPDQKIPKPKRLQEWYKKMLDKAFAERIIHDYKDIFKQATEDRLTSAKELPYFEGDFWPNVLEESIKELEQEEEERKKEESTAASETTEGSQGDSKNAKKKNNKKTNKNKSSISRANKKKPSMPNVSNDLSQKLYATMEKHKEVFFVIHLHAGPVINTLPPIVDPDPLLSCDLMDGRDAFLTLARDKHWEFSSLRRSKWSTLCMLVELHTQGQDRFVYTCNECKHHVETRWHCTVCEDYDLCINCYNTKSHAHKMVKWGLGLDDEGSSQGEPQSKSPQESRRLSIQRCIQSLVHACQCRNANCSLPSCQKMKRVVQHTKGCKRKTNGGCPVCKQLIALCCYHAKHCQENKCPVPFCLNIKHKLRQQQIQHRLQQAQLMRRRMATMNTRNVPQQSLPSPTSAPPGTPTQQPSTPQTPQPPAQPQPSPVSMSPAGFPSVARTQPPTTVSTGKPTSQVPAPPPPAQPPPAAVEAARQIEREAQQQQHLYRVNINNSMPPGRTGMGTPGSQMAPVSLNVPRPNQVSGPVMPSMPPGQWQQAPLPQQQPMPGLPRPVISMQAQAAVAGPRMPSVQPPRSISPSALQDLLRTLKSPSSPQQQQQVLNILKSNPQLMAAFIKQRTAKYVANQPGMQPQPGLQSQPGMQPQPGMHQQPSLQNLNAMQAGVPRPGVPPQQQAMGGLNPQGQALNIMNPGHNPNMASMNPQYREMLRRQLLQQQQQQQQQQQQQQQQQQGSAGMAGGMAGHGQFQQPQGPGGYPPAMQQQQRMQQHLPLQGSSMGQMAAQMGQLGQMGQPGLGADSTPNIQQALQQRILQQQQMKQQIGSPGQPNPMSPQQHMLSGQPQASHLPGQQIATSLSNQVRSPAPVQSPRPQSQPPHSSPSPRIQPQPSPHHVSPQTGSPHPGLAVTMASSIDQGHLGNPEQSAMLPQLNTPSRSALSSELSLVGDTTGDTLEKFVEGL
# ASSAY SUMMARY: CBP degradation in 22Rv1 cells (5 h)
# Assay type: cell-based
# CONDITIONS: 22Rv1, 5 h, 22Rv1 cells, 5 h; read-out: CBP Degradation (22Rv1, 5 h) DCmax
PROPERTY NAME: Dmax

MOLECULE | REPORTED
CC(=O)N1CCc2c(c(N3CCCc4cc(-c5cnn(C)c5)c(C(F)F)cc43)nn2C2CCN(CC3Cc4cc5c(cc4C3)C(=O)N(C3CCC(=O)NC3=O)C5=O)CC2)C1 (centres unmarked) | > 70%
CC(=O)N1CCc2c(c(N3CCCc4cc(C(C)C)c(C(F)F)cc43)nn2C2CCN(C(=O)CN3Cc4cc5c(cc4C3)C(=O)N(C3CCC(=O)NC3=O)C5=O)CC2)C1 (centres unmarked) | > 90%
Cn1cc(-c2cc3c(cc2C(F)F)N(c2nn(C4CCN(C(=O)CN5Cc6cc7c(cc6C5)C(=O)N(C5CCC(=O)NC5=O)C7=O)CC4)c4c2CNCC4)CCC3)cn1 (centres unmarked) | < 50%
CC(=O)N1CCc2c(c(N3CCCc4cc(CCC5CC5)c(C(F)F)cc43)nn2C2CCN(C(=O)CN3Cc4cc5c(cc4C3)C(=O)N(C3CCC(=O)NC3=O)C5=O)CC2)C1 (centres unmarked) | < 50%
CC(=O)N1CCc2c(c(N3CCCc4cc(-c5cnn(CCCCN6Cc7cc8c(cc7C6)C(=O)N(C6CCC(=O)NC6=O)C8=O)c5)c(C(F)F)cc43)nn2C2CCOCC2)C1 (centres unmarked) | > 90%
CC(=O)N1CCc2c(c(N3CCCc4cc(Cl)c(C(F)F)cc43)nn2C2CCN(C(=O)CN3CCc4cc5c(cc4C3)C(=O)N(C3CCC(=O)NC3=O)C5=O)CC2)C1 (centres unmarked) | < 50%
CC(=O)N1CCc2c(c(N3CCCc4cc(-c5cnn(C)c5)c(C(F)F)cc43)nn2C2CCN(C(=O)CCN3Cc4cc5c(cc4C3)C(=O)N(C3CCC(=O)NC3=O)C5=O)CC2)C1 (centres unmarked) | > 70%
Cn1cc(-c2cc3c(cc2C(F)F)N(c2nn(C4CCN(C(=O)CN5Cc6cc7c(cc6C5)C(=O)N(C5CCC(=O)NC5=O)C7=O)CC4)c4c2CN(C(=O)C(F)F)CC4)CCC3)cn1 (centres unmarked) | > 50%
CC(=O)N1CCc2c(c(N3CCCc4cc(-c5cnn(C)c5)c(C(F)F)cc43)nn2C2CCN(C(=O)CCN3CCc4cc5c(cc4C3)C(=O)N(C3CCC(=O)NC3=O)C5=O)CC2)C1 (centres unmarked) | > 50%
CC(=O)N1CCc2c(c(N3CCCc4cc(-c5cnn(C)c5)c(C(F)F)cc43)nn2C2CCC(N3CC4(Cc5cc6c(cc5C4)C(=O)N(C4CCC(=O)NC4=O)C6=O)C3)CC2)C1 (centres unmarked) | > 70%
CC(=O)c1cc2c(cc1C(F)F)N(c1nn(C3CCN(C(=O)CN4Cc5cc6c(cc5C4)C(=O)N(C4CCC(=O)NC4=O)C6=O)CC3)c3c1CN(C(C)=O)CC3)CCC2 (centres unmarked) | < 50%
